# assayText: Kinetics of RSSH generation by 1H NMR with NEM trapping
# Type: physicochemical
# protocolConditions: phosphate buffer; NEM, pH 7.4 buffer, 10% D2O, 37° C.; read-out: half-life of precursor
attributeMeasured: half-life at 1 mM (min)

(P) CC(C)(C)SSC(=N)Nc1ccccc1.Cl
(Q) CC(=O)NC(C(=O)O)C(C)(C)SSC(=N)Nc1ccc(Cl)cc1.Cl (stereo not shown)
Q. half-life at 1 mM comparison. Which is larger, P or Q ? Write the label of whichever entry you select.
A. P
(P: 17.3 min, Q: 9.3 min)

(1) CC(=O)NC(C(=O)O)C(C)(C)SSC(=N)Nc1ccccc1Cl.Cl (stereo not shown)
(2) COc1ccc(NC(=N)SSC(C)(C)C(NC(C)=O)C(=O)O)cc1.Cl (stereo not shown)
Q. Between item 1 and item 2 , which reported half-life at 1 mM is smaller? Give the label under which the chosen entry appears.
A. 2
